Reference source for all entries: patent US5336673A

- Tested on: Staphyloccus aureus 285
- protocol: Antibacterial activity, MIC by Agar dilution method, standard test strain 5
- Type: cell-based
- condition: 10^7 CFU/ml, 37° C., 18 hours
- Procedure: The antibacterial activity was determined by an Agar dilution method as described below. That is, the two-fold serial dilutions of the antibacterial compounds (1000 μg compound/ml) were prepared and dispersed in Muller Hinton Agar in a petri dish to a concentration of 100~0.002 μg/ml. The culture broths of standard test strains were inoculated on the medium to a concentration 10^7 CFU/ml, and incubated at 37° C. for 18 hours. […]
Measured MIC accompanies every entry in the list below.
# number only, unit µg/mL dropped from output

The cases that follow already have their MIC on record.
{"columns": ["molecule", "MIC, µg/mL"],
 "data": [
  ["CO/N=C(\\C(=O)N[C@@H]1C(=O)N2C(C(=O)O)=C(COC(C)=O)CS[C@H]12)c1csc(N)n1 [Cefotaxime, reference compound]", 1.56],
  ["CON=C(C(=O)NC1C(=O)N2C(C(=O)[O-])=C(C[n+]3nn(N)c4ccccc43)CSC12)c1csc(N)n1 (stereo not drawn)", 0.781],
  ["CO/N=C(\\C(=O)N[C@@H]1C(=O)N2C(C(=O)[O-])=C(C[n+]3cn(N)c4ccccc43)CS[C@H]12)c1csc(N)n1", 0.781]
]}

query: Returns the measured MIC for the input molecule. Input: CO/N=C(\C(=O)N[C@@H]1C(=O)N2C(C(=O)[O-])=C(C[N+]3(N)CCc4ccccc4C3)CS[C@H]12)c1csc(N)n1 (stereo partly drawn)
result: 6.25

query: Given the molecule `CO/N=C(\C(=O)N[C@@H]1C(=O)N2C(C(=O)[O-])=C(C[n+]3cn(N)cn3)CS[C@H]12)c1csc(N)n1` , what is its reported MIC?
result: 3.12

query: // returns reported MIC for input `CC(C)(O/N=C(\C(=O)N[C@@H]1C(=O)N2C(C(=O)[O-])=C(C[n+]3cn(N)cn3)CS[C@H]12)c1csc(N)n1)C(=O)O`
result: 3.12
